Source listed as PubChem BioAssay (NCATS).

- Protocol: Quantitative High-Throughput drug screen in 47 multiple myeloma cell lines against the NCATS MIPE library collection: KMS26_JCRB cell viability assay (AID 1918975); further: nearly all actives have a fitted effect of over 45% in size
- Particulars: KMS26 myeloma cells viability, CellTiter-Glo ATP, 48 h; series mostly up to 45.8 µM
Results filed as inconclusive are left out. Active and inactive are the calls of the source. The call rests on the fitted dose curve; in most records, active means well fitted cell-killing curve with a large enough effect; inconclusive means small, poorly fitted or top-dose-only effect, or effect the other way; inactive means no such curve, though single readings can be large or run the other way.
Use one of these outcomes when replying: active, inactive

[in] Returns: the outcome recorded for O=C(CO)N1CCC(c2[nH]nc(-c3ccc(Cl)cc3)c2-c2ccncn2)CC1 in this assay.
[out] inactive

[in] What classification did O=C(O)CCC=CCC[C@@H]1[C@H](N2CCCCC2)[C@@H](O)C[C@@H]1OCc1ccc(-c2ccccc2)cc1 end up with in this test?
[out] inactive

[in] Recorded test call requested for CCN1C[C@H](C)n2c(c(O)c3c(=O)n(Cc4ccc(F)c(Cl)c4)nc(C(=O)NC)c32)C1=O
[out] inactive

[in] Tell me the assay call for C=C1[C@H](n2cnc3c(=O)[nH]c(N)nc32)C[C@H](O)[C@H]1CO please.
[out] inactive

[in] Field: outcome | Entry: CN(C)N=Nc1nc[nH]c1C(N)=O
[out] active

[in] // outcome(item) with item = OC1CCC(Nc2ncc3nc(Nc4c(F)cc(F)cc4F)n([C@@H]4CCOC4)c3n2)CC1 (stereo not given in full)
[out] inactive

[in] Which outcome did this test record for the compound C[C@H](c1ccc(F)cc1CCCC(=O)O)N(c1cc(F)ccc1F)S(=O)(=O)c1ccc(Cl)cc1 ?
[out] active

[in] Can you look up the reported call for CN(C)S(=O)(=O)c1ccc2c(c1)C(=Cc1cc3c([nH]1)CCCC3)C(=O)N2 for me?
[out] active

[in] Any idea what this test logged for CC(C)(C)c1[nH]cnc1C=c1[nH]c(=O)c(=Cc2ccccc2)[nH]c1=O ?
[out] active

[in] Field: outcome | Entry: COc1cc2c(cc1OC)[C@@H]1Cc3ccc(OC)c(OC)c3CN1CC2
[out] active

====

- Protocol: Quantitative High-Throughput drug screen in 47 multiple myeloma cell lines against the NCATS MIPE library collection: H1112_PLB cell viability assay (AID 1918967; further: nearly all actives have a fitted effect of over 30% in size)
- Particulars: H1112 myeloma cells viability, ATP luminescence, 48 h; series mostly up to 45.8 µM
Inconclusive results are not listed. Active and inactive are the calls of the source. Calls follow the shape of the dose curve; as a rule, active = well fitted cell-killing curve with a large enough effect; inconclusive = small, poorly fitted or top-dose-only effect, or effect the other way; inactive = no such curve, though single readings can be large or run the other way.
// allowed return values: active, inactive

[in] Call for entry O=c1[nH]nc(OCCCc2ccc(Cl)cc2)c(NCc2cccnc2)c1Br :
[out] active

[in] Hey, what did the test say about N#CC(c1ccc(Cl)cc1)c1c(Cl)cc(-n2ncc(=O)[nH]c2=O)cc1Cl (stereo not given) ?
[out] active

[in] For CNC(=O)[C@H](CC1=CN=C2C=CCC=C12)NC(=O)[C@@H](CC(=O)NO)CC(C)C , what call appears in the results of this test?
[out] active

[in] Dear all, I need the recorded test outcome for CCN1C[C@H](C)n2c(c(O)c3c(=O)n(Cc4ccc(F)c(Cl)c4)nc(C(=O)NC)c32)C1=O , thank you.
[out] inactive

[in] Which result was noted for this molecule in the test: CCC(=C(CC)c1ccc(O)cc1)c1ccc(O)cc1
[out] active

====

- Protocol: Quantitative High-Throughput drug screen in 47 multiple myeloma cell lines against the NCATS MIPE library collection: KMS20_JCRB cell viability assay (AID 1918973); further: nearly all actives have a fitted effect of over 45% in size
- Particulars: CellTiter-Glo ATP, 48 h; series mostly up to 45.8 µM
Inconclusive results are not listed. The source made the active and inactive calls. The call rests on the fitted dose curve; in most records, active means well fitted cell-killing curve with a large enough effect; inconclusive means small, poorly fitted or top-dose-only effect, or effect the other way; inactive means no such curve, though single readings can be large or run the other way.
Form entry, call: pick from active, inactive

[in] Dear colleague, could you share the recorded outcome for CCC(=C(c1ccc(O)cc1)c1ccc(OCCNC)cc1)c1ccccc1 when you have a moment?
[out] active

[in] # lookup: test call for CN(C)CCN(C)C(=O)c1ccc(NC(=O)Nc2ccc(-c3nc(N4CCOCC4)c4ccn(CC(F)(F)F)c4n3)cc2)cc1
[out] active

[in] What was the test verdict on CCOC(=O)N1c2ccc(C(F)(F)F)cc2[C@@H](N(Cc2cc(C(F)(F)F)cc(C(F)(F)F)c2)C(=O)OC)C[C@H]1CC ?
[out] inactive

[in] What is the recorded call for this molecule in the test? CC1(C)OC2CC3C4CC(F)C5=CC(=O)C=CC5(C)C4C(O)CC3(C)[C@]2(C(=O)CO)O1 (stereo partly drawn)
[out] inactive

[in] Record request — test call for CO[C@@H]1C(N(C)C(=O)c2ccccc2)C[C@H]2O[C@]1(C)n1c3ccccc3c3c4c(c5c6ccccc6n2c5c31)C(=O)NC4=O (stereo partly drawn)
[out] active

[in] Which result was noted for this molecule in the test: CSc1cccc(Nc2ncc3cc(-c4c(Cl)cccc4Cl)c(=O)n(C)c3n2)c1
[out] active

[in] # fetch the recorded call for COc1ccc2c(c1)CC[C@H]1[C@@H]2CC[C@]2(C)[C@@H](NCCCCCCN3C(=O)C=CC3=O)CC[C@H]12 here
[out] inactive

[in] Could you kindly confirm the outcome this assay logged for O=C1NC(=O)C(c2cnc3ccccn23)=C1c1cn2c3c(cccc13)CN(C(=O)N1CCOCC1)CC2 ?
[out] active

====

- Protocol: qHTS of pediatric cancer cell lines to identify multiple opportunities for drug repurposing: Primary screen for OHS-50 cells (AID 1347103); further: potency means the concentration at half of the fitted maximal effect; nearly all actives have a fitted effect of over 40% in size
- Particulars: OHS-50 osteosarcoma viability, CellTiter-Glo luminescence, 48 h; series mostly up to 57.3 µM
Inconclusive results are not listed. Calls of active or inactive are those of the source. Calls come from the whole dose curve; as a rule, active = well fitted cell-killing curve with a large enough effect; inconclusive = small, poorly fitted or top-dose-only effect; inactive = no such curve, though single readings can be large or run the other way.
Reported Property: Potency

[in] Any idea what its Potency is? The compound is CNC(=O)c1cc(Oc2ccc(NC(=O)Nc3ccc(Cl)c(C(F)(F)F)c3)c(F)c2)ccn1
[out] 10.9 µM (active)

[in] So what's the measured Potency for this one? COc1cc2nccc(Oc3ccc(NC(=O)Nc4cc(C)on4)c(Cl)c3)c2cc1OC
[out] 19.3 µM (active)

[in] Consider the compound shown here: N#CC(=C1Nc2ccccc2S1)c1ccnc(OCc2ccc(CN3CCOCC3)cc2)n1 What is its recorded Potency?
[out] 0.344 µM (active)

[in] Can you share its Potency? I mean this compound: CNC1CCC(N(Cc2cccc(-c3ccncc3)c2)C(=O)c2sc3ccccc3c2Cl)CC1 (stereo not given)
[out] 19.3 µM (active)

[in] Given the compound Cn1cnc(-c2cc3nccc(Oc4ccc(NC(=S)NC(=O)Cc5ccccc5)cc4F)c3s2)c1 , what is its reported Potency?
[out] 34.3 µM (active)

====

- Protocol: Quantitative High-Throughput drug screen in 47 multiple myeloma cell lines against the NCATS MIPE library collection: JIM1_ECACC cell viability assay (AID 1918964)
- Particulars: JIM1 myeloma viability, CellTiter-Glo ATP luminescence, 48 h; series mostly up to 45.8 µM
Results filed as inconclusive are left out. The source made the active and inactive calls. Calls follow the shape of the dose curve; as a rule, active = well fitted cell-killing curve with a large enough effect; inconclusive = small, poorly fitted or top-dose-only effect, or effect the other way; inactive = no such curve, though single readings can be large or run the other way.
// classify into true (1) (active), false (0) (inactive)

[in] Tell me the recorded outcome of this test for N[C@@H](CC(=O)N1CCn2c(nnc2C(F)(F)F)C1)Cc1cc(F)c(F)cc1F .
[out] false (0)

[in] I'd appreciate the recorded outcome for CCCCCCCCCCCCCCCC(=O)O[C@H]1[C@@H](O)[C@@H](O)[C@@H]([C@H](NC(=O)[C@@H]2C[C@@H](CCC)CN2C)[C@H](C)Cl)O[C@@H]1SC from this test.
[out] false (0)

[in] Test call for this compound, please: Cc1c(-c2cccc3c(CCCOc4cccc5ccccc45)c(C(=O)O)n(Cc4cccnc4)c23)c(COc2ccc(N3CCN([S+](=O)([O-])N(C)C)CC3)cc2)nn1C
[out] false (0)

[in] # lookup: test call for FC(F)(F)c1ccc(C=Cc2nc(COc3ccc(CCCCn4ccnn4)cc3)co2)cc1
[out] true (1)

[in] Name the outcome recorded for C[C@@H]1O[C@@H](O[C@H]2CC[C@@]3(C)[C@H](CC[C@@H]4[C@H]3C[C@@H](O)[C@]3(C)[C@@H](C5=CC(=O)OC5)CC[C@]43O)C2)C[C@H](O)[C@@H]1O[C@H]1C[C@H](O)[C@H](O[C@H]2C[C@H](O)[C@@H](O)[C@@H](C)O2)[C@H](C)O1 (stereo in doubt) in the assay.
[out] true (1)

[in] Any idea what this test logged for CC(NCCc1ccc(O)cc1)C(O)c1ccc(O)cc1 (stereo not given) ?
[out] false (0)

[in] Could you please tell me the result logged for O=C(c1ccc(C=Cc2n[nH]c3ccccc23)cc1)N1CCNCC1 in this assay?
[out] true (1)

[in] Query: recorded result category for C[C@@H](N)c1ccc(C(=O)Nc2ccnc3[nH]ccc23)cc1 in this test
[out] true (1)

[in] What call does the record list for CC1CCN(c2cc(N3CCN(C)CC3)ccc2NC(=O)c2cc(C#N)c[nH]2)CC1 ?
[out] false (0)

[in] Which outcome was entered for the compound CC[C@H](NC(=O)[C@H](C)NC)C(=O)N1C[C@@H](O)C[C@H]1Cc1c(-c2[nH]c3cc(F)ccc3c2C[C@H]2C[C@H](O)CN2C(=O)[C@H](CC)NC(=O)[C@H](C)NC)[nH]c2cc(F)ccc12 in this test?
[out] true (1)

[in] Assay outcome for CC[C@H]1OC(=O)[C@H](C)[C@@H](O[C@H]2C[C@@](C)(OC)[C@@H](O)[C@H](C)O2)[C@H](C)[C@@H](O[C@@H]2O[C@H](C)C[C@H](N(C)C)[C@H]2O)[C@](C)(O)C[C@H](C)C(=NOCOCCOC)[C@H](C)[C@@H](O)[C@]1(C)O : what was it?
[out] false (0)

[in] Record request — test call for CCCCC(C)(C)[C@H](O)C=C[C@H]1[C@H](O)CC(=O)[C@H]1CC=CCCCC(=O)O
[out] false (0)

[in] Dear all, I need the recorded test outcome for CC(C)C[C@@H](N)[C@H](O)C(=O)N[C@H](C(=O)N[C@H](C(=O)N[C@@H](CC(=O)O)C(=O)O)C(C)C)C(C)C , thank you.
[out] false (0)

[in] For NC(=O)c1noc([C@H](CCCC2CCCCC2)CC(=O)NO)n1 , what call appears in the results of this test?
[out] true (1)

[in] Given O=C(O)c1ccc(O)c2ncc(N3CCOCC3)cc12 , state the outcome it received in this test.
[out] true (1)
